Target: MAGI2_3, Q86UL8
Sequence (Q86UL8 600-682): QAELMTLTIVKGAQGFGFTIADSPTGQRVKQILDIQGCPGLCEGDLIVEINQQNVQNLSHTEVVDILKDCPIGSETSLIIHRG
Assay: holdup assay
Design: key: below the threshold = too weak to quantify, mostly under pKd 3.1 to 4
Details: plain residues with an end cap or a label only (N-terminal biotin on a linker: ado-ado)

{"BINDER": "NTANRRTTPV [CACNG2, Q9Y698]", "pKd": "below the threshold"}
{"BINDER": "NNNVVKVDSV [MTNR1A, P48039]", "pKd": "below the threshold"}
{"BINDER": "VKRNSKETVV [MARCHF3, Q86UD3]", "pKd": 4.2}
{"BINDER": "MQHQRTHTRV [ZSCAN30, Q86W11]", "pKd": "below the threshold"}
{"BINDER": "PYSESDDDWC [CACNA1A, O00555]", "pKd": "below the threshold"}
{"BINDER": "APIAGFSSFV [SDK2, Q58EX2]", "pKd": "below the threshold"}
{"BINDER": "DTKNYKQTSV [CRIPT, Q9P021]", "pKd": 3.94}
{"BINDER": "PPGKHLVTEV [KCNA7, Q96RP8]", "pKd": 4.22}
